Target system: T1, AFP158/HLA-A*02:01 complex (human)
T1 construct: biotinylated on the BSP by BirA for ELISA and panning; also called biotinylated AFP158/HLA-A*02:01 complex; Bio-AFP158
Protocol details: SPR; vs AS170036 VL1VH1;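 also: crude scFv captured on sensor chip, peptide–HLA complex flowed over at several concentrations, KD estimated from association and dissociation kinetic rates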
# Affinity increase annotations
Give a bare numeral; the unit fold is implied.

# annotated cases, reported Affinity increase shown
INSERT INTO assay_data (binder, observation_type, measured_number) VALUES
  ('AS170036 VL1VH1 HG108T (scFv) scFv: QSALTQPRSVSGSPGQSVTISCAGTSSDVGSENYVSWYQQHPGKAPKLMIYQVNKRASGVPDRFSGSKSGNTASLTISGLQAEDEADYYCASYRSSDHNIVFGGGTKLTVLGGGGSGGGGSGGGGSEVQLVESGGGLVQPGGSLRLSCAASGFTFSSYAMSWVRQAPGKGLEWVSTINSGTGSPYYADSVKGRFTISRDNSKNTLYLQMNSLRAEDTAVYYCAKNFFDGSWFLTPPAMDYWGQGTLVTVSSHHHHHH', 'Affinity increase', 0.5),
  ('AS170036 VL1VH1 HP58R (scFv) scFv: QSALTQPRSVSGSPGQSVTISCAGTSSDVGSENYVSWYQQHPGKAPKLMIYQVNKRASGVPDRFSGSKSGNTASLTISGLQAEDEADYYCASYRSSDHNIVFGGGTKLTVLGGGGSGGGGSGGGGSEVQLVESGGGLVQPGGSLRLSCAASGFTFSSYAMSWVRQAPGKGLEWVSTINSGTGSRYYADSVKGRFTISRDNSKNTLYLQMNSLRAEDTAVYYCAKNFFDGSWFLGPPAMDYWGQGTLVTVSSHHHHHH', 'Affinity increase', 0.2),
  ('AS170036 VL1VH1 HP58E (scFv) scFv: QSALTQPRSVSGSPGQSVTISCAGTSSDVGSENYVSWYQQHPGKAPKLMIYQVNKRASGVPDRFSGSKSGNTASLTISGLQAEDEADYYCASYRSSDHNIVFGGGTKLTVLGGGGSGGGGSGGGGSEVQLVESGGGLVQPGGSLRLSCAASGFTFSSYAMSWVRQAPGKGLEWVSTINSGTGSEYYADSVKGRFTISRDNSKNTLYLQMNSLRAEDTAVYYCAKNFFDGSWFLGPPAMDYWGQGTLVTVSSHHHHHH', 'Affinity increase', 0.5),
  ('AS170036 VL1VH1 HP58H (scFv) scFv: QSALTQPRSVSGSPGQSVTISCAGTSSDVGSENYVSWYQQHPGKAPKLMIYQVNKRASGVPDRFSGSKSGNTASLTISGLQAEDEADYYCASYRSSDHNIVFGGGTKLTVLGGGGSGGGGSGGGGSEVQLVESGGGLVQPGGSLRLSCAASGFTFSSYAMSWVRQAPGKGLEWVSTINSGTGSHYYADSVKGRFTISRDNSKNTLYLQMNSLRAEDTAVYYCAKNFFDGSWFLGPPAMDYWGQGTLVTVSSHHHHHH', 'Affinity increase', 0.3);

Please examine the following record next.
Request: // Affinity increase lookup, key: AS170036 VL1VH1 HG56K (scFv) scFv: QSALTQPRSVSGSPGQSVTISCAGTSSDVGSENYVSWYQQHPGKAPKLMIYQVNKRASGVPDRFSGSKSGNTASLTISGLQAEDEADYYCASYRSSDHNIVFGGGTKLTVLGGGGSGGGGSGGGGSEVQLVESGGGLVQPGGSLRLSCAASGFTFSSYAMSWVRQAPGKGLEWVSTINSGTKSPYYADSVKGRFTISRDNSKNTLYLQMNSLRAEDTAVYYCAKNFFDGSWFLGPPAMDYWGQGTLVTVSSHHHHHH
Result: 0.7
